The reported measurements were obtained from ChEMBL document CHEMBL5346896.

- testedOn: Melatonin receptor type 1B (Homo sapiens, UniProt P49286)
- Sequence (P49286 whole entry): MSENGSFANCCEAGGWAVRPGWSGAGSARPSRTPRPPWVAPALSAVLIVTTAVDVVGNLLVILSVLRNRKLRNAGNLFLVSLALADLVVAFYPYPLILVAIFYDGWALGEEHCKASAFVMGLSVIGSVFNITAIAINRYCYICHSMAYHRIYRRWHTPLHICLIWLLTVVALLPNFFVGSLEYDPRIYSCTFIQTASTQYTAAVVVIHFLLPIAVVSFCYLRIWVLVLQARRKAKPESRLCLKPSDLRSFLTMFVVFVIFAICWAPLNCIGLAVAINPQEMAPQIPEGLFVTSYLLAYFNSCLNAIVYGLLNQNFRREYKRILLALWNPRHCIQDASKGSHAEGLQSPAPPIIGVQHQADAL
- methodDescription: Partial agonist activity at human melatonin MT2 receptor expressed in HEK293 cells co-transfected with Galphai9 chimera construct assessed as stimulation of inositol phosphate production by HTRF based assay
pEC50: −log10 of the molar value.
measuredQuantity: pEC50

1) COC(=O)NCCc1c(C(O)c2ccc(OC)cc2F)[nH]c2ccc(OC)cc12 (stereo not drawn) :: > 5.00
2) COC(=O)NCCc1c(C(O)c2ccccc2)[nH]c2ccc(OC)cc12 (stereo not drawn) :: > 5.00
3) COc1ccc2[nH]c(C(O)c3ccc(F)cc3)c(CCNC(C)=O)c2c1 (stereo not drawn) :: > 5.00

====

- testedOn: Melatonin receptor type 1A (Homo sapiens, UniProt P48039)
- Sequence (P48039 whole entry): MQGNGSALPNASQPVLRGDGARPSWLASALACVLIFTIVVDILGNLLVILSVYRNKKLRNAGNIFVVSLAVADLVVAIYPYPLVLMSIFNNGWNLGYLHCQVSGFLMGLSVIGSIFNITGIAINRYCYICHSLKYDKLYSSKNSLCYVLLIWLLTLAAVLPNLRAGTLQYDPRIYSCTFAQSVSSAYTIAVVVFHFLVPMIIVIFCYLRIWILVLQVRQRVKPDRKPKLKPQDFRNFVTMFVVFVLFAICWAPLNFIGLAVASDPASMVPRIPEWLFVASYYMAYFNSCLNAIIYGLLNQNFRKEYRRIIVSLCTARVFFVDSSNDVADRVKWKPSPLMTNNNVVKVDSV
- methodDescription: Partial agonist activity at human melatonin MT1 receptor expressed in HEK293 cells co-transfected with Galphai9 chimera construct assessed as stimulation of inositol phosphate production by HTRF based assay
- Assay type: functional, cell-based
pEC50: −log10 of the molar value.
Each entry below carries its recorded pEC50.
measuredQuantity: pEC50

1. COc1ccc2[nH]c(C(O)c3ccc(F)cc3)c(CCNC(C)=O)c2c1 (stereo not drawn) :: > 5.00
2. COC(=O)NCCc1c(C(O)c2ccc(OC)cc2F)[nH]c2ccc(OC)cc12 (stereo not drawn) :: > 5.00
3. COC(=O)NCCc1c(C(O)c2ccccc2)[nH]c2ccc(OC)cc12 (stereo not drawn) :: > 5.00

====

- testedOn: Melatonin receptor type 1A (Homo sapiens)
pKi: −log10 of the molar value.
measuredQuantity: pKi

1) COc1ccc2[nH]c(C(O)c3ccc(F)cc3)c(CCNC(C)=O)c2c1 (stereo not drawn) :: 5.27
2) COc1ccc(C(O)c2[nH]c3ccc(OC)cc3c2CCNC(C)=O)c(F)c1 (stereo not drawn) :: 5.17
3) CN1CC(=O)NC(CCc2c(C(O)c3ccccc3N)[nH]c3ccccc23)C1=O (stereo not drawn) :: 4.38
